Property: inhibition at 1 µM; scope: individual compounds
Target: histamine receptor H1 (Homo sapiens, UniProt P35367)
Sequence (P35367 whole entry): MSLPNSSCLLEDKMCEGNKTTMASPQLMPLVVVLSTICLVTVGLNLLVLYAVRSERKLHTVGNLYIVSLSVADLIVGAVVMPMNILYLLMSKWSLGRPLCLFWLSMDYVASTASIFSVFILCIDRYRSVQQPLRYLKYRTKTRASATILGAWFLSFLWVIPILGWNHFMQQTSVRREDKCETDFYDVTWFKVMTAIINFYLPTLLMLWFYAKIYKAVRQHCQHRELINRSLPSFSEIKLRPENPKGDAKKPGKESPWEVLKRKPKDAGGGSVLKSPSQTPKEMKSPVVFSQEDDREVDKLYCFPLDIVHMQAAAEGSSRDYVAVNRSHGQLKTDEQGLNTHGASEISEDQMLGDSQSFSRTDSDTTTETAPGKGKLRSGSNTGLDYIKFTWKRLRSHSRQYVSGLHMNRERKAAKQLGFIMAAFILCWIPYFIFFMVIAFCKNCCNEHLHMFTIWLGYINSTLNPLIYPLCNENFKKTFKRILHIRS
Assay: Histamine H1 radioligand binding ([3H]Pyrilamine)
Conditions: read-out: Histamine Binding (1 μM) H1, percent inhibition of specific binding, 1 μM
Numeric only. Scale: %

Examples from the recorded data:
CN1CCc2c(c3cc(Cl)ccc3n2CC(C)(O)c2ccc(F)cc2)C1 (centres unmarked) = 65
C/C(=C\n1c2c(c3cc(Cl)ccc31)CN(C)CC2)c1cc(F)c(F)cc1Cl = 89
C/C(=C\n1c2c(c3cc(C)ccc31)CN(C)C(C)C2)c1ccc(F)cc1 (centres unmarked) = 59
CCc1ccc2c(c1)c1c(n2/C=C(\C)c2ccncc2)CCN(C)C1 = 19

Quick check: inhibition at 1 µM of Cc1ccc2c(c1)c1c(n2/C=C(\CC(=O)O)c2ccc(F)cc2)CCN(C)C1 ?
9

Quick check: inhibition at 1 µM of C/C(=C\n1c2c(c3cc(C(F)(F)F)ccc31)CN(C)CC2)c1ccncc1 ?
48

Quick check: inhibition at 1 µM of CN1CCc2c(c3cccc(Cl)c3n2C[C@@](C)(O)c2ccncc2)C1 ?
14

Quick check: inhibition at 1 µM of CN1CCc2c(c3cccc(Cl)c3n2C[C@](C)(O)c2ccncc2)C1 ?
17

Quick check: inhibition at 1 µM of Cc1ccc2c(c1)c1c(n2/C=C(/c2ccccc2)c2ccncc2)CCN(C)C1 ?
26

Quick check: inhibition at 1 µM of C/C(=C\n1c2c(c3cc(Cl)ccc31)CN(C)CC2)c1cc(C)nc(C)c1 ?
69

Quick check: inhibition at 1 µM of C/C(=C\n1c2c(c3cc(N(C)C)ccc31)CN(C)CC2)c1ccc(F)cc1 ?
29

Quick check: inhibition at 1 µM of COc1ccc(/C(F)=C(/c2ccc(OC)nc2)n2c3c(c4cc(C)ccc42)CN(C)CC3)cn1 ?
13

Quick check: inhibition at 1 µM of C/C(=C\n1c2c(c3cc(C)ccc31)CN(C)CC2)c1cnccn1 ?
33

Quick check: inhibition at 1 µM of Cc1ccc2c(c1)c1c(n2/C(=C(/F)c2ccncc2)c2ccncc2)CCN(C)C1 ?
4

Quick check: inhibition at 1 µM of CNC(=O)c1ccc(/C(F)=C/n2c3c(c4cc(C)ccc42)CN(C)CC3)cc1F ?
43

Quick check: inhibition at 1 µM of C/C(=C\n1c2c(c3cc(Cl)ccc31)CN(C)CC2)c1ccnc(C)c1 ?
75

Quick check: inhibition at 1 µM of CC(=O)N(C)c1ccc2c(c1)c1c(n2/C=C(\C)c2ccc(F)cc2)CCN(C)C1 ?
-5

====

Molecular target: human recombinant serotonin (5-Hydroxytryptamine) 5-HT6 receptor (Homo sapiens, UniProt P50406)
Construct: expressed in transfected cells; host or cells: human HeLa cells
Sequence (P50406 whole entry): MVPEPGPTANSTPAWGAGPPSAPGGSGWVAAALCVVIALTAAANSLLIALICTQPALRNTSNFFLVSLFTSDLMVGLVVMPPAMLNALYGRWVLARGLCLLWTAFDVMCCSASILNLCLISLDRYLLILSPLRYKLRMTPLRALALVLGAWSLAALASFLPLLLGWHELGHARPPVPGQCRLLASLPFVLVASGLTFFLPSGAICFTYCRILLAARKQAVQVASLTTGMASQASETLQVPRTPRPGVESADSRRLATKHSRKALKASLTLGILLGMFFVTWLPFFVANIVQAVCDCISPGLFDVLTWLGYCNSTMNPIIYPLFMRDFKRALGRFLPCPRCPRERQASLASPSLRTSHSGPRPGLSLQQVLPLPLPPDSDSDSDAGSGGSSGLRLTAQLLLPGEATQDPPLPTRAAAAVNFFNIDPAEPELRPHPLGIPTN
Test: Serotonin 5-HT6 radioligand binding ([3H]LSD)
Details: compound at 1 μM; read-out: Inhibition of ligand binding, Serotonin 5-HT6 (percent inhibition of specific binding)
Value Type: inhibition at 1 µM (%)
Numeric only. Scale: %

Examples from the recorded data:
Cc1ccc2c(c1)c1c(n2/C=C(\CC(=O)O)c2ccc(F)cc2)CCN(C)C1 = 41
CN1CCc2c(c3cc(Cl)ccc3n2C/C(=C\CCO)c2ccc(F)cc2)C1 = 94
Cc1ccc2c(c1)c1c(n2CC(C)(O)c2ccncc2)CCN(C)C1 (stereo not drawn) = 43
C/C(=C\n1c2c(c3cc(Cl)ccc31)CN(C)CC2)c1ccc(F)c(F)c1 = 100
C/C(=C/n1c2c(c3cc(Cl)c(Cl)cc31)CN(C)CC2)c1ccncc1 = 106
CCC(O)(Cn1c2c(c3cc(C)ccc31)CN(C)CC2)c1ccc(F)cc1 (stereo not drawn) = 100
C/C(=C\n1c2c(c3ccc(F)cc31)CN(C)CC2)c1ccc(F)cc1 = 107
Cc1ccc2c(c1)c1c(n2CC(O)c2ccncc2)CCN(C)C1 (stereo not drawn) = 72

Quick check: inhibition at 1 µM of COc1ccc2c(c1)c1c(n2/C=C(\C)c2ccncc2)CCN(C)C1 ?
104
